// provenance: PubChem BioAssay (NCI)

Tested on: SN12C renal
procedure_text: NCI-60 one-dose screen, 48 h (100 = growth as untreated, 0 = no growth, -100 = all killed)
test_context: 10 µM unless noted
Compounds without any hit were thinned out: in the full panel of roughly 83,000, 20% have a hit. Calls of active or inactive are those of the source. How the source made its calls: active means growth percent below 10; inactive means the rest.
measured_endpoint: growth

Form field growth, entry COc1cc2nc(Cl)nc(Nc3cccc(C(=O)/C=C/c4ccc(Cl)cc4)c3)c2cc1OC : 70.5% (inactive)

// growth lookup, compound = Cc1ccc(-c2nc([P+](c3ccccc3)(c3ccccc3)c3ccccc3)c(N3C[C@H]4C[C@H](C3)c3cccc(=O)n3C4)o2)cc1 , result: 95.2% (inactive)

growth in this record for CCCCC[C@H]1C/C=C2/C(=O)C=C[C@@H]2C/C=C\CCCC(=O)O[C@@H](CCCCC)C/C=C2/C(=O)C=C[C@@H]2C/C=C\CCCC(=O)O1 : -65.7% (active)

Reported growth of COc1ccc(/C(=C\c2ccc3c(c2)OCO3)C(=O)Nc2nc3ccccc3s2)cc1OC : 102% (inactive)

The value of growth measured for the compound COC(=O)[C@]12CC[C@@H](C)[C@H](C)[C@@H]1C1=CC(=O)[C@@H]3[C@@]4(C)C[C@@H](OC(C)=O)[C@H](OC(C)=O)[C@@](C)(COC(C)=O)[C@@H]4C(=O)C[C@@]3(C)[C@]1(C)CC2 turned out to be 57.1% (inactive)

growth for CN1CCN(CCOc2ccc(-c3cnc4c(-c5cccc(F)c5)cnn4c3)cc2)CC1 is 60.6% (inactive)

Briefly, growth measured for COc1ccc(/C=C(\C#N)c2cc3ccccc3n2S(C)(=O)=O)cc1 : 90.8% (inactive)

growth recorded for this compound, Nc1nc(N)c2nc3c(nc2n1)CCCCCCCCCC3 , is 43.2% (inactive)

---

Test system: MDA-MB-231 breast
procedure_text: NCI-60 one-dose screen, 48 h (100 = growth as untreated, 0 = no growth, -100 = all killed)
test_context: 10 µM unless noted
About 83,000 compounds went through this panel and 20% of them were active in at least one assay; those are over-represented in the sample as a whole.
measured_endpoint: growth (%)
// units = %; emit number, no label

Entry under test: Cn1c(=O)c2c(ncn2CC(=O)Nc2ccc(S(N)(=O)=O)cc2)n(C)c1=O . Its growth was 105

// sample COc1ccc2c(c1)C/C(=C\c1cc(-c3cc(OC)c(OC)c(OC)c3)n[nH]1)C2=O , its growth was 78.9

Item: C#CCN=C[C@]12CC[C@@H](C(=C)C)[C@@H]1[C@H]1CC[C@@H]3[C@@]4(C)CCC(=O)C(C)(C)[C@@H]4CC[C@@]3(C)[C@]1(C)CC2 | growth: 83.8

Query O=C1c2ccccc2NC(c2cn(-c3ccccc3)nc2-c2cccs2)N1Cc1ccccc1 (centres undefined) yields growth of 77.4

growth in this record for COc1ccc(NC(=S)N/N=C/c2ccccc2SSCCC(=O)OC[C@H]2O[C@H](O)[C@H](O)[C@@H](O)[C@@H]2O)cc1 : 71.1

C=C1CC[C@@H](C(=O)OC)Cc2nc(C)ccc21 yielded growth of 108

CC(=O)N1N=C(c2ccc(C)cc2)CC1c1ccc(Oc2ccc(Br)cc2)cc1 (centres undefined) yielded growth of 85.7

growth for Cc1ccccc1-c1nc(C(Cl)Cl)nc2cc(-c3ccccc3)nn12 is 44.9

Noted for O=C1c2cccc3cccc(c23)C(=O)N1CC#Cc1ccc2c3c(cccc13)C(=O)N(CCN1CCNCC1)C2=O : its growth reads 7.95

---

System: RXF 393 renal
procedure_text: NCI-60 one-dose screen, 48 h (100 = growth as untreated, 0 = no growth, -100 = all killed)
test_context: 10 µM unless noted
Compounds without any hit were thinned out: in the full panel of roughly 83,000, 20% have a hit.
Answer no (0) if growth is under 60%, and yes (1) if it is 60% or more.

Request: Is it the case that O=C1Nc2ccccc2/C1=C/c1cn(CCCn2c3ccccc3c(=O)c3ccccc32)c2ccccc12 has growth reaching or exceeding 60%?
Result: yes (1)

Request: Is growth for O=c1c2sc3ncc(Br)cc3c2ncn1-c1cccc(Cl)c1 at or above 60%?
Result: yes (1)

Request: Is the recorded value of growth equal to or greater than 60% for this compound? CCCCCCCC(=O)SCC/C=C/[C@@H]1CC(=O)NCc2cccc(n2)CN(Cc2ccc3ccccc3c2)CC(=O)N[C@@H](C(C)C)C(=O)O1
Result: no (0)

Request: Given the entry Cc1ccc(Nc2c(C(N)=O)cnc3ccc(S(=O)(=O)Nc4cc(C)on4)cc23)cc1 , answer whether its growth meets or surpasses 60%.
Result: yes (1)

Request: Quick check: does C=C(C)[C@@H]1CC[C@]2(C)CC[C@]3(C)[C@H](CC[C@@H]4[C@@]5(C)CCCNC(C)(C)[C@@H]5CC[C@]43C)[C@@H]12 have growth greater than or equal to 60%?
Result: yes (1)

Request: In plain terms: is recorded growth at least 60% for Cn1nc(-c2ccccc2)c2c(-c3ccccc3)onc2c1=O ?
Result: no (0)

Request: Reported growth at or above 60%? Cc1ccc2c(c1)c1nc3cc(C)c(C)cc3nc1n2CCN(C)C
Result: no (0)

---

Test system: SK-MEL-5 melanoma
procedure_text: NCI-60 one-dose screen, 48 h
test_context: 10 µM unless noted
The panel holds about 83,000 compounds, 20% with a hit somewhere; the sample as a whole holds those more often. Active and inactive are the calls of the source. How the source made its calls: active means growth percent below 10; inactive means the rest.
Choose one outcome from this list and give only that: yes (active), no (inactive)

Request: Returns: the outcome recorded for Nc1c(C(=O)Nc2c(Cl)cccc2Cl)sc2nc3c(cc12)C(=O)CCC3 in this assay.
Result: no

Request: Hello, I am checking results. What call was entered for Cc1csc(Nc2nc(-c3ccc(Cl)cc3)nc(C(Cl)(Cl)Cl)n2)n1 ?
Result: no

Request: Called result for C#CCN=C[C@]12CC[C@@H](C(=C)C)[C@@H]1[C@H]1CC[C@@H]3[C@@]4(C)CCC(=O)C(C)(C)[C@@H]4CC[C@@]3(C)[C@]1(C)CC2
Result: no

Request: # fetch the recorded call for CC1(C)CC[C@]2(C(=O)Nc3ccccn3)CC[C@]3(C)C(=CC[C@@H]4[C@@]5(C)C/C(=C/c6ccncc6)C(=O)C(C)(C)[C@@H]5CC[C@]43C)[C@@H]2C1 here
Result: yes

Request: Any idea what this test logged for O=c1c(CNc2ccc(S(=O)(=O)Nc3ncccn3)cc2)coc2ccccc12 ?
Result: no

Request: Assay outcome for c1ccc2[nH]c(-c3cc(-c4ccc5c(c4)OCO5)n[nH]3)nc2c1 : what was it?
Result: no

Request: Outcome? CN1CCN(CCOc2ccc(-c3cnc4c(-c5cccc(F)c5)cnn4c3)cc2)CC1
Result: no

Request: Would you mind telling me which call this test gave CN(C)c1ccc(-c2ccc(-c3ccc(C(=N)N)c(F)c3)s2)cc1 ?
Result: yes

Request: Write down the call the test reported for this compound. Item: Cn1cc(-c2csc(-c3cn(C(=O)OC(C)(C)C)c4ccc(Br)cc34)n2)c2cccnc21
Result: no

Request: Please indicate how the test categorized CCCCCCCC(=O)SCC/C=C/[C@@H]1CC(=O)NCc2cccc(n2)CN(Cc2ccc3ccccc3c2)CC(=O)N[C@@H](C(C)C)C(=O)O1 .
Result: yes

Request: For Clc1ccccc1-c1nc(Nc2nc3ccccc3s2)nc(C(Cl)(Cl)Cl)n1 , which call appears in the assay record?
Result: no

Request: Test call for this compound, please: COc1ccc(OC)c(-c2c(C#N)c(-c3ccco3)nc3c2c(-c2ccccc2)nn3-c2ccccc2)c1
Result: no

Request: For this compound, state the assay outcome: COc1cnc2c(c1)C(=O)c1c-2n(CCCNC2=NCCS2)c(=O)c2cc([N+](=O)[O-])ccc12
Result: yes

Request: Could you kindly confirm the outcome this assay logged for CN(C)c1ccc(N=C2C=CC(=O)C=C2)cc1 ?
Result: no

Request: For Cc1cc2nc3c4cc([N+](=O)[O-])cc([N+](=O)[O-])c4n(CCN(C)C)c3nc2cc1C , what call appears in the results of this test?
Result: no

Request: What is the recorded call for this compound in the test? COc1cccc(-c2nn(-c3ccccc3)cc2-c2ccnc(NCCCNS(=O)(=O)c3ccc(C(F)(F)F)cc3)c2)c1
Result: yes

Request: Test call, this compound: COc1cc2ncnc(Nc3ccc(Oc4ccnc(C)c4)c(C)c3)c2cc1NC(=O)CC1CCSS1 (centres undefined)
Result: yes

Request: Look up the recorded call for CCCCC[C@H]1C/C=C2/C(=O)C(Cl)=C[C@@H]2C/C=C\CCCC(=O)O1 in this test.
Result: yes

Request: Called result for c1csc(-c2nc(-c3cc4ccccc4c(N4CCOCC4)n3)cs2)c1
Result: no

---

Tested on: ACHN renal
procedure_text: NCI-60 one-dose screen, 48 h (100 = growth as untreated, 0 = no growth, -100 = all killed)
test_context: 10 µM unless noted
Compounds without any hit were thinned out: in the full panel of roughly 83,000, 20% have a hit.
Kindly state growth for each of the entries shown.
Value expressed in %; do not type the unit.

What the record says about COc1ccc(-c2cc(-c3c(C)oc4cc5occc5c(OC)c4c3=O)nc(N)c2C#N)cc1OC : growth is 65.6

Lookup result for Clc1ccc(Cn2cc(-c3nc4ccc(Br)nc4n3Cc3ccc(Cl)cc3)c3cccnc32)cc1 ; measured growth: 75

Measured growth, CCOC(=O)C1OC1(c1ccccc1)c1ccccc1 (stereo not drawn) : 103

// sample Cn1c(/C(C#N)=C/c2ccc3ccccc3c2)cc2ccccc21 , its growth was 35.4

Sure, the documented growth for O=[N+]([O-])c1cccc(/C=N\Nc2ccccc2)c1 is 41.9

Measured growth of Fc1ccc2c(c1)c(-c1nc(-c3c[nH]c4ncccc34)cs1)cn2CCCN1CCCCC1 : 71.7

Briefly, growth measured for Cn1c(=O)c2c(ncn2CCC(=O)Nc2ccc(F)cc2)n(C)c1=O : 110

Record CCN(CC)c1ccc(/C=C/c2cc(C)c3ccccc3n2)cc1 , field growth: 60.8

Short answer for C/C(Cc1ccc(Cl)cc1)=C(/c1ccc(Cl)cc1)c1ccc(OCCN2CCCC2)cc1 : growth was 93.8

Quick note, growth for COc1ccc(/C=C2\N=C(c3ccccc3)N(c3cc(OC)c(OC)cc3C(=O)N3N=C(C)CC3=O)C2=O)cc1 landed at 93.2

The recorded growth for COc1ccc2c(c1)c(-c1nc(-c3c[nH]c4ncccc34)cs1)cn2CCCN1CCCCC1 is 22.3

Entry COc1cccc(-c2nn(-c3ccccc3)cc2-c2ccnc(NCCNS(=O)(=O)c3ccc(C(F)(F)F)cc3)c2)c1 , growth reported as 8.66

Field growth (entry COc1c(N)c2c(c([N+](=O)[O-])c1OC)C(=O)OC2 ) reads 117

growth recorded for this molecule, CN1CCN(CC#CCn2c3c(c4ccccc42)C[C@]2(C)[C@H]4CC[C@@H]5[C@H]6[C@H]7OC(=O)[C@@]6(CCC7(C)C)CC[C@@]5(C)[C@]4(C)CC[C@H]2C3(C)C)CC1 , is 91.3

Record summary for CN1CCN(c2ccc3nc(-c4[nH]ncc4Nc4ncnc5[nH]ccc45)[nH]c3c2)CC1 : reported growth = 0.294

Per the records, this molecule ( c1ccc2[nH]c(-c3cc(-c4ccc5c(c4)OCO5)n[nH]3)nc2c1 ) has growth equal to 45.6

Item: c1ccc(-c2nc(Nc3ccc(-c4nc5ccccc5[nH]4)cc3)nc(N3CCOCC3)n2)cc1 | growth: -58.9

Per the record, Cc1[c-]onc1C.Cc1[c-]onc1C.[Ag].[Ag].[NH-]S(=O)(=O)c1ccc(N=Nc2cc(N=Nc3ccc(S([NH-])(=O)=O)cc3)c3c(NC(=O)C(Cl)Cl)cccc3c2OC(=O)C(Cl)Cl)cc1 has growth of 58

The recorded growth for c1ccc(C2Cc3ccccc3C2=NC2CCCCC2)cc1 (stereo not drawn) is 97

The reported value for CC(=O)c1c(C)[nH]c(-c2nc3ccc(N4CCN(C)CC4)cc3[nH]2)c1-c1ccc(N(C)C)cc1 in terms of growth is 19.8

According to the records, this molecule Cc1cc(N(CCCNc2ccnc3cc(Cl)ccc23)Cc2ccco2)nc(N2CCOCC2)n1 displays growth of 95.3

// recorded growth for COC(=O)[C@]12CC[C@@H](C)[C@H](C)[C@@H]1C1=CC[C@@H]3[C@@]4(C)C[C@@H](O)[C@H](O)[C@@](C)(CO)C4=CC[C@@]3(C)[C@]1(C)CC2 : -83.7

Query O=C1c2ccccc2C(=Cc2ccccc2)c2ccccc21 yields growth of 28.1

Given item CCCCN1CCCCn2c1nc1c2c(=O)n(C)c(=O)n1C , the value recorded as its growth is 107

For O=C(/C=C/c1ccc2ccccc2c1)Nc1ncc(Cc2ccccc2)s1 the molecule record lists growth as 6.83

Entry COc1ccccc1-n1cnc(N)c1C(=O)c1cc(OC)c(OC)c(OC)c1 , growth reported as 58.6

The molecule identified as COc1cc2[nH]c(C(=O)c3cc(OC)c(OC)c(OC)c3)c(N)c2cc1C#CC1CC1 registered its growth at 24.8

response.value for Cc1cc(N2CCCCC2)nc(N(CCCNc2ccnc3cc(Cl)ccc23)Cc2ccco2)n1 (field: growth) = 38.8

// growth value for Brc1cnc2[nH]cc(-c3nnc(-c4ccccc4)o3)c2c1 : 28.9

Form: molecule = COc1ccc(-c2cc(-c3cccs3)n(N=O)c(=O)c2C#N)cc1 ; growth = 109

response.value for CCC1C(=O)COC1=O (stereo not drawn) (field: growth) = 103

The molecule identified as CC(C)c1cc(C(=O)O)c(O)c(C(C)C)c1.CC(C)c1cc(C(=O)O)c(O)c(C(C)C)c1.[Mn] registered its growth at 103

// field: growth; key: COc1cc2ncnc(Nc3ccc(OCc4cccc(F)c4)c(Cl)c3)c2cc1NC(=O)C1CCCC1 ; value = 47.6

Recorded growth (molecule O=Cc1nc2ccccc2[nH]1 ): 106

Recorded result, Nc1nc(N)c2nc3c(nc2n1)CCCCCCCCCC3 , growth: 39.4

The recorded growth for CCN(CC)CCCCCCNc1ccnc2cc(Cl)ccc12 is 111

# growth (molecule: CC(C)(C)n1cc(-c2ccnc(NCCCNS(=O)(=O)c3ccc(Cl)cc3)c2)c(-c2cccc(F)c2)n1 ) is 80.8

growth reading for Cc1nc([P+](c2ccccc2)(c2ccccc2)c2ccccc2)c(Sc2sc(-c3ccccc3)nc2[P+](c2ccccc2)(c2ccccc2)c2ccccc2)o1 : 17.3
